For each of the molecules below, state its solubility.
# METHOD_SUMMARY: Compound solubility in water
# Assay type: physicochemical
Give the number; µg/mL is assumed, so skip it.

QUERY: Could you share which solubility value was measured for Cc1cc(C)n2ncc(C(=O)NC(C)(C)c3ccc(Cl)cc3)c2n1 [III-67] ?
RESULT: 2.2

QUERY: Name the recorded solubility for Cc1ccn2ncc(CNc3ccc(-c4cocn4)cc3)c2n1 [III-25] .
RESULT: 54

QUERY: Which solubility is reported for this molecule? C#C[C@H]1CC[C@@H](NC(=O)c2cnn3c(C)cc(C)nc23)CC1 [III-15]
RESULT: 8
